Cited source: patent US20200316090A1

- TEST_PROTOCOL: in vitro
- RECORDED_CONDITIONS: PAMPA, Permeability (cm/s), 5 h incubation, peak area used in place of concentration, first table
QUANTITY_KIND: Papp (×10⁻⁶ cm/s)

COMPOUND	UOM	RECORDED_VALUE
CCc1c2c(nc3ccc(O)cc13)-c1cc3c(c(=O)n1C2)COC(=O)[C@]3(O)CC [SN-38, reference compound]	×10⁻⁶ cm/s	0.643

###

- TEST_PROTOCOL: Tissue distribution of SDC-TRAP and degradation products in tumor-bearing mice (plasma, tumor, heart)
- Type: in vivo, Female SCID Mouse (H1975)
- RECORDED_CONDITIONS: female, SCID, mouse, in vivo, tissue distribution of SDC-TRAP-0056; […]; read-out: Tumor/Plasma Ratio
QUANTITY_KIND: Kp

COMPOUND	QUANTITY_KIND	RECORDED_VALUE
CCc1c2c(nc3ccc(O)cc13)-c1cc3c(c(=O)n1C2)COC(=O)C3(CC)OC(=O)CN1CCN(c2ccc(-n3c(O)nnc3-c3cc(C(C)C)c(O)cc3O)cc2)CC1 (stereo not shown)	Kp	0.0193

###

- TEST_PROTOCOL: Tissue distribution of SDC-TRAP and degradation products in tumor-bearing mice (plasma, tumor, heart)
- Type: in vivo, Female SCID Mouse (H1975)
- RECORDED_CONDITIONS: female, SCID, mouse, in vivo; read-out: Plasma Conc.

MOLECULE	concentration at 1 h [µM]
CCNC(=O)c1nnc(-c2cc(C(C)C)c(O)cc2O)n1-c1ccc(C(=O)N2CCN(c3cc(C)c(OC(=O)Nc4cccc5c4CN(C4CCC(=O)NC4=O)C5=O)c(C)c3)CC2)cc1 (stereo not shown)	217

###

- TEST_PROTOCOL: Tissue distribution of SDC-TRAP and degradation products in tumor-bearing mice (plasma, tumor, heart)
- Format: in vivo, Female SCID Mouse (H1975)
- RECORDED_CONDITIONS: female, SCID, mouse, in vivo
Listing: Kp at 6 h of selected compounds
QUANTITY_KIND: Kp at 6 h

COMPOUND	RECORDED_VALUE
CCc1c2c(nc3ccc(OC(=O)N4CCC(CCn5ccc6cc(-n7c(O)nnc7-c7cc(C(C)C)c(O)cc7O)ccc65)CC4)cc13)-c1cc3c(c(=O)n1C2)COC(=O)[C@]3(O)CC	2.25
CCc1c2c(nc3ccc(O)cc13)-c1cc3c(c(=O)n1C2)COC(=O)[C@]3(O)CC [SN-38, reference compound]	5.8

###

- TEST_PROTOCOL: Tissue distribution of SDC-TRAP and degradation products in tumor-bearing mice (plasma, tumor, heart)
- Format: in vivo, Female SCID Mouse (H1975)
- RECORDED_CONDITIONS: female, SCID, mouse, in vivo, tissue distribution of SDC-TRAP-0056; 6 h; read-out: Tumor/Plasma Ratio
QUANTITY_KIND: Kp

COMPOUND	RECORDED_VALUE
CCc1c2c(nc3ccc(O)cc13)-c1cc3c(c(=O)n1C2)COC(=O)C3(CC)OC(=O)CN1CCN(c2ccc(-n3c(O)nnc3-c3cc(C(C)C)c(O)cc3O)cc2)CC1 (stereo not shown)	0.844

###

- TEST_PROTOCOL: Tissue distribution of SDC-TRAP and degradation products in tumor-bearing mice (plasma, tumor, heart)
- Type: in vivo, Female SCID Mouse (H1975)
- RECORDED_CONDITIONS: female, SCID, mouse, in vivo; tissue distribution of SDC-TRAP-0046; 12 h; read-out: Tumor/Plasma Ratio

MOLECULE	Kp at 12 h
CCc1c2c(nc3ccc(OC(=O)N4CCN(Cc5ccc(-n6c(O)nnc6-c6cc(C(C)C)c(O)cc6O)cc5)CC4)cc13)-c1cc3c(c(=O)n1C2)COC(=O)C3(O)CC (stereo not shown)	40.3

###

- TEST_PROTOCOL: Tissue distribution of SDC-TRAP and degradation products in tumor-bearing mice (plasma, tumor, heart)
- Format: in vivo, Female SCID Mouse (H1975)
- RECORDED_CONDITIONS: female, SCID, mouse, in vivo
QUANTITY_KIND: Kp at […]

MOLECULE	QUANTITY_KIND	RECORDED_VALUE
Nc1cccc2c1CN(C1CCC(=O)NC1=O)C2=O (stereo not drawn) [Lenalidomide, lenalidomide, reference compound]	Kp at […]	0.449
CCc1c2c(nc3ccc(OC(=O)N4CCC(CCn5ccc6cc(-n7c(O)nnc7-c7cc(C(C)C)c(O)cc7O)ccc65)CC4)cc13)-c1cc3c(c(=O)n1C2)COC(=O)[C@]3(O)CC	Kp at […]	0.01
CCc1c2c(nc3ccc(O)cc13)-c1cc3c(c(=O)n1C2)COC(=O)[C@]3(O)CC [SN-38, reference compound]	Kp at […]	0.13

###

- TEST_PROTOCOL: Tissue distribution of SDC-TRAP and degradation products in tumor-bearing mice (plasma, tumor, heart)
- Type: in vivo, Female SCID Mouse (H1975)
- RECORDED_CONDITIONS: female, SCID, mouse, in vivo
QUANTITY_KIND: concentration at 48 h (nM)

COMPOUND	QUANTITY_KIND	RECORDED_VALUE
CCc1c2c(nc3ccc(OC(=O)N4CCC(CCn5ccc6cc(-n7c(O)nnc7-c7cc(C(C)C)c(O)cc7O)ccc65)CC4)cc13)-c1cc3c(c(=O)n1C2)COC(=O)[C@]3(O)CC [SDC-TRAP-0063]	concentration at 48 h	1110

###

- TEST_PROTOCOL: Artificial membrane permeability assay (PAMPA)
- RECORDED_CONDITIONS: 5 h incubation, first table
Listing: Mass Retention (%) of selected compounds
QUANTITY_KIND: Mass Retention (%)

COMPOUND	RECORDED_VALUE
CC(C)c1cc(-c2nnc(O)n2-c2ccc3c(ccn3CCN(C)C(=O)CCCC(=O)Nc3cccc4c3CN(C3CCC(=O)NC3=O)C4=O)c2)c(O)cc1O (stereo not shown)	14.7%
CCNC(=O)c1nnc(-c2cc(C(C)C)c(O)cc2O)n1-c1ccc(CN2CCC(C(=O)N3CCN(c4cc(C)c(OC(=O)Nc5cccc6c5CN(C5CCC(=O)NC5=O)C6=O)c(C)c4)CC3)CC2)cc1 (stereo not shown)	27.1%
CC(C)c1cc(-c2nnc(C(=O)NCCCCCS(N)(=O)=O)n2-c2ccc(CN3CCOCC3)cc2)c(O)cc1O	21.0%
CCNC(=O)c1nnc(-c2cc(C(C)C)c(O)cc2O)n1-c1ccc2c(c1)CN(Cc1cc(OC)c(OC(=O)Nc3cccc4c3CN(C3CCC(=O)NC3=O)C4=O)c(OC)c1)C2 (stereo not shown)	22.3%
CC(=O)O[C@@]12CO[C@@H]1C[C@H](O)[C@@]1(C)C(=O)[C@H](O)C3=C(C)[C@@H](OC(=O)[C@H](O)[C@@H](NC(=O)OC(C)(C)C)c4ccccc4)C[C@@](O)([C@@H](OC(=O)c4ccccc4)[C@H]21)C3(C)C [Docetaxel, docetaxel, reference compound]	17.6%
COc1cccc2c1C(=O)c1c(O)c3c(c(O)c1C2=O)C[C@@](O)(C(=O)CO)C[C@@H]3O[C@H]1C[C@H](N)[C@H](O)[C@H](C)O1 [Doxorubicin, doxorubicin, reference compound]	21.0%
Nc1cccc2c1CN(C1CCC(=O)NC1=O)C2=O (stereo not shown) [Lenalidomide, lenalidomide, reference compound]	26.0%
Cn1c(=O)c2c(ncn2C)n(C)c1=O	20.8%
CC(C)c1cc(-c2nnc(O)n2-c2ccc3c(ccn3CCOCCNC(=O)CCn3cc(F)c(=O)[nH]c3=O)c2)c(O)cc1O	10.8%
CC(C)c1cc(-c2nnc(O)n2-c2ccc(CN3CCN(C(=O)CCn4cc(F)c(=O)[nH]c4=O)CC3)cc2)c(O)cc1O	14.1%
CCc1c2c(nc3ccc(OC(=O)N4CCC[C@H]4C(=O)N4CCC(CCn5ccc6cc(-n7c(O)nnc7-c7cc(C(C)C)c(O)cc7O)ccc65)CC4)cc13)-c1cc3c(c(=O)n1C2)COC(=O)[C@]3(O)CC	34.8%
CCc1c2c(nc3ccc(O)cc13)-c1cc3c(c(=O)n1C2)COC(=O)[C@]3(O)CC [SN-38, reference compound]	38.2%
CCNC(=O)c1nnc(-c2cc(C(C)C)c(O)cc2O)n1-c1ccc(CN2CCC(C(=O)N[C@@H](CC(C)C)C(=O)Nc3cccc4c3CN(C3CCC(=O)NC3=O)C4=O)CC2)cc1 (stereo partly shown)	10.2%

###

- TEST_PROTOCOL: Artificial membrane permeability assay (PAMPA)
- RECORDED_CONDITIONS: same protocol, second table
Label TRUE when Mass Retention (%) is strictly below 50%; at or above that, label FALSE.

MOLECULE	CLASS_NAME
CCc1c2c(nc3ccc(OC(=O)N(C)CCOCCn4ccc5cc(-n6c(O)nnc6-c6cc(C(C)C)c(O)cc6O)ccc54)cc13)-c1cc3c(c(=O)n1C2)COC(=O)C3(O)CC (centres unmarked)	FALSE
CCNC(=O)c1nnc(-c2cc(C(C)C)c(O)cc2O)n1-c1ccc(Oc2ccc(C(=O)N3CCC(C(=O)OC4(CC)C(=O)OCc5c4cc4n(c5=O)Cc5c-4nc4ccc(O)cc4c5CC)CC3)cc2)cc1 (centres unmarked)	TRUE
CCc1c2c(nc3ccc(O)cc13)-c1cc3c(c(=O)n1C2)COC(=O)[C@]3(O)CC [SN-38, reference compound]	TRUE
CCc1c2c(nc3ccc(O)cc13)-c1cc3c(c(=O)n1C2)COC(=O)[C@@]3(CC)OC(=O)N1CCC(CCn2ccc3cc(-n4c(O)nnc4-c4cc(C(C)C)c(O)cc4O)ccc32)CC1	TRUE
CCc1c2c(nc3ccc(OC(=O)N4CCC(CCn5ccc6cc(-n7c(O)nnc7-c7cc(C(C)C)c(O)cc7O)ccc65)CC4)cc13)-c1cc3c(c(=O)n1C2)COC(=O)[C@]3(O)CC	TRUE
Cn1c(=O)c2c(ncn2C)n(C)c1=O	TRUE
CCc1c2c(nc3ccc(OC(=O)N4CCN(Cc5ccc(-n6c(O)nnc6-c6cc(C(C)C)c(O)cc6O)cc5)CC4)cc13)-c1cc3c(c(=O)n1C2)COC(=O)C3(O)CC (centres unmarked)	FALSE
CCNC(=O)c1nnc(-c2cc(C(C)C)c(O)cc2O)n1-c1ccc2c(ccn2CCC2CCN(C(=O)Oc3ccc4nc5c(c(CC)c4c3)Cn3c-5cc4c(c3=O)COC(=O)[C@]4(O)CC)CC2)c1	TRUE
CCNC(=O)c1nnc(-c2cc(C(C)C)c(O)cc2O)n1-c1ccc(OC2CCN(c3cnc(C(=O)N[C@H]4C[C@H](O[C@H]5C[C@](O)(C(=O)CO)Cc6c(O)c7c(c(O)c65)C(=O)c5c(OC)cccc5C7=O)O[C@@H](C)[C@H]4O)cn3)CC2)cc1	TRUE
CCc1c2c(nc3ccc(OC(=O)N4CCC[C@H]4C(=O)N4CCC(CCn5ccc6cc(-n7c(O)nnc7-c7cc(C(C)C)c(O)cc7O)ccc65)CC4)cc13)-c1cc3c(c(=O)n1C2)COC(=O)[C@]3(O)CC	FALSE
CCNC(=O)c1nnc(-c2cc(C(C)C)c(O)cc2O)n1-c1ccc2c(ccn2CCC2CCN(C(=O)O[C@]3(CC)C(=O)OCc4c3cc3n(c4=O)Cc4c-3nc3ccc(O)cc3c4CC)CC2)c1	TRUE
